Values were extracted from PubChem BioAssay AID602405.

Tested on: UDP-N-acetylbacillosamine N-acetyltransferase PglD (Campylobacter jejuni)
Assay: C. jejuni PglD acetyltransferase inhibitors, primary screen, biochemical, DTNB colorimetric, single point (AID 602405)
Settings: purified PglD enzyme, DTNB colorimetric CoA detection; at 12.5 µM; hits give high values
The campaign covered roughly 360,000 compounds. About 350 (0.097%) were called active. The sample holds actives, similar compounds and a random draw of the others, so the mix is not that of the screen.
metric: inhibition (%)
Numbers only, in %.

Parameters: items (list). Returns: inhibition for each item.
1. C[C@H]1CN([C@@H](C)CO)C(=O)c2cccc(NC(=O)C3CCOCC3)c2O[C@H]1CN(C)S(C)(=O)=O
2. COC(=O)C[C@@H]1C[C@H]2c3cc(NC(=O)CN(C)C)ccc3O[C@H]2[C@H](CO)O1
3. COc1ccc(NC(=O)CN(C)C(=O)c2ccc(COc3ccccc3)o2)cc1
4. CN(C)Cc1cn(CC[C@H]2CC[C@H](NC(=O)Nc3ccccc3F)[C@@H](CO)O2)nn1
5. C[C@@H]1CN([C@@H](C)CO)C(=O)c2cc(NC(=O)CCCN(C)C)ccc2O[C@@H](C)CCCCO[C@H]1CN(C)Cc1ccc2c(c1)OCO2

-0.415
1.44
-2.65
-0.499
-1.38

Parameters: items (list). Returns: inhibition for each item.
1. CN1CCN(C(=O)C[C@@H]2C=C[C@@H](NS(=O)(=O)c3cccc(F)c3)[C@@H](CO)O2)CC1
2. CC(C)NC(=O)Nc1ccc2c(c1)C(=O)N([C@H](C)CO)C[C@@H](C)[C@@H](CN(C)S(=O)(=O)c1ccc(Cl)cc1)OCCCC[C@H](C)O2
3. CCCNC(=O)N(C)C[C@@H]1Oc2cc(-c3ccccc3)ccc2S(=O)(=O)N([C@H](C)CO)C[C@H]1C

1. -7.9
2. 1.05
3. 3.76

====

Would you kindly list inhibition for each of these compounds?
Test system: UDP-N-acetylbacillosamine N-acetyltransferase PglD (Campylobacter jejuni)
Test: C. jejuni PglD acetyltransferase inhibitors, primary screen, biochemical, DTNB colorimetric, single point (AID 602405)
Details: purified PglD enzyme, DTNB colorimetric CoA detection; at 12.5 µM; hits give high values
In all, about 360,000 compounds went through this assay and about 350 (0.097%) were called active. The list comes from a sample in which actives are over-represented; it also holds close analogues and randomly drawn compounds.
Give bare numbers, in %.

[[record]]
compound_structure = "C[C@H](O)C#Cc1ccc2c(c1)O[C@@H](CN(C)C(=O)C1CCCCC1)[C@H](C)CN([C@@H](C)CO)S2(=O)=O"
tested_target = "UDP-N-acetylbacillosamine N-acetyltransferase PglD (Campylobacter jejuni)"
value = -1

[[record]]
compound_structure = "C[C@@H]1CN([C@H](C)CO)S(=O)(=O)c2ccc(C#Cc3ccccc3F)cc2O[C@@H]1CN(C)C(=O)c1ccc2c(c1)OCO2"
tested_target = "UDP-N-acetylbacillosamine N-acetyltransferase PglD (Campylobacter jejuni)"
value = -1.88

[[record]]
compound_structure = "N#C[C@H]1[C@@H](c2ccc(-c3ccccc3F)cc2)[C@H](CO)N1C(=O)c1ccccn1"
tested_target = "UDP-N-acetylbacillosamine N-acetyltransferase PglD (Campylobacter jejuni)"
value = -0.127

[[record]]
compound_structure = "CC(=O)N1C[C@@H]2[C@H](c3ccccc31)[C@H](CO)N2Cc1ccc(Cl)cc1"
tested_target = "UDP-N-acetylbacillosamine N-acetyltransferase PglD (Campylobacter jejuni)"
value = 2.15

[[record]]
compound_structure = "CCCC#Cc1cnc2c(c1)C(=O)N([C@H](C)CO)C[C@H](C)[C@H](CN(C)C(=O)Cc1ccncc1)O2"
tested_target = "UDP-N-acetylbacillosamine N-acetyltransferase PglD (Campylobacter jejuni)"
value = 0.18

[[record]]
compound_structure = "CO[C@H]1CN(C)C(=O)c2ccc(NC(=O)C3CC3)cc2OC[C@@H](C)N(C)C[C@H]1C"
tested_target = "UDP-N-acetylbacillosamine N-acetyltransferase PglD (Campylobacter jejuni)"
value = 4.48


Parameters: items (list). Returns: inhibition for each item.
1. O=C(Nc1ccc(Sc2ccc(Br)cc2)cc1)c1ccco1
2. O=C(NNC(=O)c1ccco1)Nc1ccccc1
3. C[C@H](CO)N1C[C@H](C)[C@@H](CN(C)Cc2ccc3c(c2)OCO3)Oc2c(NC(=O)C3CCOCC3)cccc2C1=O

1. 20.2
2. 3.41
3. -0.262

====

Would you kindly list inhibition for each of these molecules?
Test system: UDP-N-acetylbacillosamine N-acetyltransferase PglD (Campylobacter jejuni)
Experiment: C. jejuni PglD acetyltransferase inhibitors, primary screen, biochemical, DTNB colorimetric, single point (AID 602405)
Details: purified PglD enzyme, DTNB colorimetric CoA detection; at 12.5 µM; hits give high values
The campaign covered roughly 360,000 compounds. About 350 (0.097%) were called active. This is one part of a sample in which actives are shown more often than they occur.
One number for each entry, in %.

Reference set, count: 3
[[record]]
compound_structure = "Cc1noc(C)c1NC(=O)N(C)C[C@H]1OCCCC[C@H](C)Oc2ccc(NC(=O)Nc3ccc4c(c3)OCO4)cc2C(=O)N([C@H](C)CO)C[C@@H]1C"
units = "%"
value = 3.46

[[record]]
compound_structure = "COc1ccc(CNC(=O)C[C@H]2CC[C@@H]3[C@H](COc4ccc(NC(=O)C5CC5)cc4C(=O)N3C)O2)cc1"
units = "%"
value = -0.548

[[record]]
compound_structure = "CC(C)C#Cc1ccc([C@@H]2[C@H]3CN(C(=O)NC(C)C)CCCCN3[C@H]2CO)cc1"
units = "%"
value = 1.97


// moving on: another record for inhibition
Reported inhibition, molecule COCCNC(=O)C[C@H]1CC[C@@H]2[C@H](COc3ccc(NC(=O)Nc4cccc(F)c4)cc3C(=O)N2C)O1 : ____
0.139

====

Would you kindly list inhibition for each of these molecules?
Tested on: UDP-N-acetylbacillosamine N-acetyltransferase PglD (Campylobacter jejuni)
Assay: C. jejuni PglD acetyltransferase inhibitors, primary screen, biochemical, DTNB colorimetric, single point (AID 602405)
Conditions: purified PglD enzyme, DTNB colorimetric CoA detection; at 12.5 µM; hits give high values
Out of some 360,000 compounds screened, about 350 (0.097%) were called active. The sample as a whole holds a higher share of actives than the screen did.
Numbers only, in %.

Reference set, count: 8
[[record]]
molecule = "CC(C)CC#Cc1ccc2c(c1)O[C@H](CN(C)C(=O)CC1CC1)[C@@H](C)CN([C@@H](C)CO)S2(=O)=O"
value = 0.792

[[record]]
molecule = "C[C@H]1CN([C@@H](C)CO)C(=O)c2cc(/C=C/c3ccccc3)cnc2O[C@@H]1CN(C)C(=O)NC1CCCCC1"
value = 4.19

[[record]]
molecule = "Cc1noc(C)c1S(=O)(=O)Nc1ccc2c(c1)CC(=O)N([C@@H](C)CO)C[C@@H](C)[C@H](CN(C)C)O2"
value = -1.66

[[record]]
molecule = "COc1ccc(CNC(=O)C2CCN(C(=O)c3ccccc3)CC2)cc1"
value = -3.01

[[record]]
molecule = "COc1ccc(CN(C)C[C@@H]2OCCCC[C@H](C)Oc3ccc(NS(C)(=O)=O)cc3C(=O)N([C@@H](C)CO)C[C@H]2C)cc1"
value = -1.59

[[record]]
molecule = "C[C@H](CO)N1C[C@H](C)[C@H](CN(C)C(=O)Nc2ccc(C(F)(F)F)cc2)Oc2ccc(N(C)C)cc2CC1=O"
value = 1.24

[[record]]
molecule = "CCCC#Cc1ccc([C@H]2[C@@H](CO)N(C(=O)C3CC3)[C@H]2C#N)cc1"
value = 0.491

[[record]]
molecule = "C[C@@H](NC(=O)[C@H]1[C@H](CO)[C@H]2Cn3c(cccc3=O)[C@H]2N1C(=O)C1CC1)c1ccccc1"
value = -3.9


Parameters: items (list). Returns: inhibition for each item.
1. Cc1noc(C)c1NC(=O)Nc1ccc2c(c1)C(=O)N([C@H](C)CO)C[C@H](C)[C@H](CN(C)C(=O)C1CCCCC1)OCCCC[C@@H](C)O2
2. O=C(C[C@@H]1CC[C@@H](NC(=O)C2CC2)[C@H](CO)O1)NCc1ccncc1
3. COc1ccccc1CNC(=O)C[C@@H]1CC[C@@H]2[C@@H](COc3ccc(NC(=O)Nc4ccc(F)c(F)c4)cc3C(=O)N2C)O1
4. OC[C@@H]1Nc2ccc(-c3cccc(F)c3)cc2[C@H]2[C@@H]1CCN2Cc1ccncc1
5. Cc1ccc(S(=O)(=O)N(C)C[C@H]2Oc3c(NC(=O)c4ccc(-c5nccs5)cc4)cccc3C(=O)N([C@H](C)CO)C[C@H]2C)cc1
6. C[C@@H]1CN([C@@H](C)CO)S(=O)(=O)c2ccc(C#Cc3cccnc3)cc2O[C@@H]1CN(C)C(=O)CN(C)C
7. COc1cccc(NC(=O)N(C)C[C@H]2Oc3ncc(C4=CCCCC4)cc3C(=O)N([C@H](C)CO)C[C@H]2C)c1

1. 0.321
2. -0.635
3. 0.834
4. -3.81
5. -3.77
6. 0.034
7. 10.3
